Reported pIC50 values follow for various compounds
# Test system: endothelial tube formation in co-cultures of ECFCs and ADSCs treated with VEGF
# assay details: cells
# Format: cell-based, human
# experimental setup: read-out: VEGF_ADSC\ECFC Angio CD31 TubeArea summarized IC50
pIC50: −log10 of the molar value.

smiles text	pIC50
CC(C)(C)CC(C)(C)c1ccc(OCCOCC[N+](C)(C)Cc2ccccc2)cc1	5.43
Oc1ccc(O)cc1	< 5.00
O=C1C(I)=CC(=C(c2cc(I)c(O)c(I)c2)c2ccccc2C(=O)O)C=C1I	< 5.00
O=C1c2c(O)cccc2Cc2cccc(O)c21	6.22
Cc1ccc2c(Br)cc(Br)c(O)c2n1	< 5.00
O=[N+]([O-])C(Br)(CO)CO	< 5.00
CCCCCCCCCCCCCCCC(=O)OC/C=C(C)/C=C/C=C(C)/C=C/C1=C(C)CCCC1(C)C	< 5.00
CCCCCCCCCCCC(=O)[O][Sn]([CH2]CCC)([CH2]CCC)[O]C(=O)CCCCCCCCCCC	5.70
Nc1c2ccccc2nc2ccccc12	< 5.00
O=c1[nH]cc(F)c(=O)[nH]1	< 5.00
Oc1cc(Cl)ccc1Oc1ccc(Cl)cc1Cl	< 5.00
COc1cc(/C=C2\CCC/C(=C\c3ccc(O)c(OC)c3)C2=O)ccc1O	< 5.00
Cc1c(C)c2c(c(C)c1O)CC[C@@](C)(CCC[C@H](C)CCC[C@H](C)CCCC(C)C)O2	< 5.00
CCCCCCCCCCCC[N+](C)(C)Cc1ccccc1	< 5.00
CCCOC(=O)c1cc(O)c(O)c(O)c1	< 5.00

----------
# System: HT-29
# assay details: cells
# Type: cell-based
# experimental setup: Homo sapiens; basal; HT-29; read-out: Basal_Viability ATP HT-29

compound	IC50
O=C(Nc1ccc(Br)cc1)c1cc(Br)cc(Br)c1O [Tribromsalan]	1 nM

----------
// reported IC50/EC50, Basal_Viability ATP HCT116 (assay number 25) for each item listed
# Test system: HCT116
# assay details: cells
# Type: cell-based
# experimental setup: basal
assay metric: IC50/EC50, Basal_Viability ATP HCT116 (assay number 25) (µM)

compound	reading unit	qualifying sign	measured value
COC(=O)Nc1nc2ccc([S+]([O-])c3ccccc3)cc2[nH]1 (stereo not drawn) [NCGC00095157-05]	µM	=	0.001
CCCSc1ccc2nc(NC(=O)OC)[nH]c2c1 [NCGC00016876-12]	µM	=	0.1118
Cc1cc(-c2ccc(N=Nc3c(S(=O)(=O)O)cc4cc(S(=O)(=O)O)cc(N)c4c3O)c(C)c2)ccc1N=Nc1c(S(=O)(=O)O)cc2cc(S(=O)(=O)O)cc(N)c2c1O [NCGC00344528-01]	µM	>	20
NC(=NCCCCCCN=C(N)/N=C(\N)Nc1ccc(Cl)cc1)/N=C(\N)Nc1ccc(Cl)cc1 [NCGC00016246-09]	µM	=	4.3853
O=C1NCCN1CCN1CCC(c2cn(-c3ccc(F)cc3)c3ccc(Cl)cc23)CC1 [NCGC00181782-03]	µM	=	2.1598
Cc1c(NC(=O)c2cccnc2)c(=O)n(-c2ccccc2)n1C [NCGC00016605-08]	µM	>	20
Cc1cc(N)c2ccccc2[n+]1CCCCCCCCCC[n+]1c(C)cc(N)c2ccccc21 [NCGC00015339-07]	µM	>	20
COC(=O)Nc1nc2ccc(C(=O)C3CC3)cc2[nH]1 [NCGC00262953-01]	µM	=	0.1735
Cc1cccc(Nc2cc(Cl)nc(SCC(=O)O)n2)c1C [NCGC00014702-15]	µM	>	20

----------
// reported pIC50 per item
# System: HCT116 cells treated with a GSK3β inhibitor
# assay details: cells
# Type: cell-based
# experimental setup: read-out: GSK3b inh pretreated_Viability ATP HCT116
pIC50: −log10 of the molar value.

compound	pIC50
CCN1C(=CC=Cc2sc3ccccc3[n+]2CC)Sc2ccccc21 [3,3'-diethylthiacarbocyanine iodide]	8.06
CCOc1ccc2nc3cc(N)ccc3c(N)c2c1	5.23
CCC(COC(=O)c1cc(OC)c(OC)c(OC)c1)(c1ccccc1)N(C)C (centres unmarked)	5.79
O=C([O-])CN(CCN(CC(=O)[O-])CC(=O)O)CCN(CC(=O)[O-])CC(=O)O.[Gd+3]	6.05
COc1ccc(OC(=O)N(CC(=O)O)Cc2ccc(OCCc3nc(-c4ccccc4)oc3C)cc2)cc1	5.21

----------
# assay target: hFLT3 (Homo sapiens, UniProt P36888)
# Construct: purchased Cerep (LANCE kinase assay platform, contract assay)
# Sequence (P36888 27-993): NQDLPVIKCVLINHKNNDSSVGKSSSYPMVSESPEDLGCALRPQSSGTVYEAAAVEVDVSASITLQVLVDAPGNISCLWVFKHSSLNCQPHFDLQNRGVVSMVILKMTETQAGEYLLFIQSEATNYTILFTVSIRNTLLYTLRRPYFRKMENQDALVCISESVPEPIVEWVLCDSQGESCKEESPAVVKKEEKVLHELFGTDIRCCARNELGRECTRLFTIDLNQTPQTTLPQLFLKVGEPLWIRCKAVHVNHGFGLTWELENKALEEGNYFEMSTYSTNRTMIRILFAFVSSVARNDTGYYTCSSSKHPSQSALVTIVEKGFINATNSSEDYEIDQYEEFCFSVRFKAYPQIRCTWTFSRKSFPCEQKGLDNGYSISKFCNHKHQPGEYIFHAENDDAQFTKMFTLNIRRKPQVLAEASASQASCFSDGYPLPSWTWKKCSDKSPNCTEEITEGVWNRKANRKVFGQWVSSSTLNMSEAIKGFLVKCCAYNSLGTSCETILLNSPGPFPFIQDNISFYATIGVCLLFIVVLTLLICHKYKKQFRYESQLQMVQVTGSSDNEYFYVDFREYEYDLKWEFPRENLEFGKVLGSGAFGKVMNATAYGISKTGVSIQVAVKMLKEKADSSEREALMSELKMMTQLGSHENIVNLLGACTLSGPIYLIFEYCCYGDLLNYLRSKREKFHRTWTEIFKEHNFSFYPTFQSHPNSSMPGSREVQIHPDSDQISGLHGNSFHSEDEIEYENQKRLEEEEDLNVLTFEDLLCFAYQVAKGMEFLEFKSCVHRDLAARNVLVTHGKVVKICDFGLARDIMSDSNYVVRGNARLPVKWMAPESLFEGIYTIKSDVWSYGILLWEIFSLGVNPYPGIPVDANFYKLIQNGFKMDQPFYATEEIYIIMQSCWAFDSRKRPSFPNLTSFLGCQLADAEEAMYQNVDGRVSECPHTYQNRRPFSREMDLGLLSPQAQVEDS
# assay details: Cerep LANCE kinase assay hFLT3 (S1 assay 35)
# Format: biochemical
# experimental setup: assay number 35; read-out: hFLT3 LANCE summarized IC50
Quick list: IC50 per entry.

smiles text	IC50
S=c1nc[nH]c2nc[nH]c12	> 20 µM
COc1cc([C@@H]2c3cc4c(cc3[C@H](O)[C@H]3COC(=O)[C@H]23)OCO4)cc(OC)c1OC	> 20 µM
Oc1c(Cl)cc(Cl)c2cccnc12	> 20 µM
Oc1c(Cl)cc(Cl)cc1Sc1cc(Cl)cc(Cl)c1O	> 20 µM
CCCCCCCCCCCCCCCC[n+]1ccccc1	> 20 µM
Oc1c(I)cc(I)c2cccnc12	> 20 µM

----------
// IC50/EC50, VEGF_ADSC\ECFC Angio Hoechst NucArea (assay number 3) collected for ECFC/ADSC co-culture cell nuclei number
assay metric: IC50/EC50, VEGF_ADSC\ECFC Angio Hoechst NucArea (assay number 3)

smiles text	measured value
CSc1ccc(/C=C2/C(C)=C(CC(=O)O)c3cc(F)ccc32)cc1	> 10 µM
COC(=O)Nc1nc2ccc(Sc3ccccc3)cc2[nH]1	> 10 µM
CCOC(=O)C1=C(C)NC(C)=C(C(=O)OCC)C1c1ccccc1/C=C/C(=O)OC(C)(C)C	> 10 µM
O=C1c2ccccc2C(=O)C1C(=O)C(c1ccccc1)c1ccccc1	> 10 µM
CN(C)/N=N/c1nc[nH]c1C(N)=O	> 10 µM

----------
# Tested on: HT-29
# assay details: cells
# Format: cell-based
# experimental setup: assay number 28; basal

compound	assay target	reading unit	qualifying sign	Basal_Viability ATP HT-29 IC50/EC50
CC[C@]1(O)C[C@@H]2CN(CCc3c([nH]c4ccccc34)[C@@](C(=O)OC)(c3cc4c(cc3OC)N(C)[C@H]3[C@@](O)(C(=O)OC)[C@H](OC(C)=O)[C@]5(CC)C=CCN6CC[C@]43[C@@H]65)C2)C1.O=S(=O)(O)O [NCGC00344583-01]	HT-29	nM	=	1
CC(=O)N(CC(O)CN(C(C)=O)c1c(I)c(C(=O)NCC(O)CO)c(I)c(C(=O)NCC(O)CO)c1I)c1c(I)c(C(=O)NCC(O)CO)c(I)c(C(=O)NCC(O)CO)c1I (centres unmarked) [NCGC00179408-03]	HT-29	nM	>	20000
CN1CCN(C2Cc3ccccc3Sc3ccc(Cl)cc32)CC1.O=C(O)/C=C\C(=O)O (centres unmarked) [NCGC00015759-05]	HT-29	nM	=	8001
COc1cccc2c1C(=O)c1c(O)c3c(c(O)c1C2=O)C[C@@](O)(C(C)=O)C[C@@H]3O[C@H]1C[C@H](N)[C@H](O)[C@H](C)O1 [NCGC00024246-15]	HT-29	nM	=	648.5
CC(=O)O[C@@]12CO[C@@H]1C[C@H](O)[C@@]1(C)C(=O)[C@H](O)C3=C(C)[C@@H](OC(=O)[C@H](O)[C@@H](NC(=O)OC(C)(C)C)c4ccccc4)C[C@@](O)([C@@H](OC(=O)c4ccccc4)[C@H]21)C3(C)C [NCGC00181306-04]	HT-29	nM	=	1

----------
# assay target: hGSK3b (Homo sapiens, UniProt P49841)
# Construct: purchased Cerep (LANCE kinase assay platform, contract assay)
# Sequence (P49841 whole entry): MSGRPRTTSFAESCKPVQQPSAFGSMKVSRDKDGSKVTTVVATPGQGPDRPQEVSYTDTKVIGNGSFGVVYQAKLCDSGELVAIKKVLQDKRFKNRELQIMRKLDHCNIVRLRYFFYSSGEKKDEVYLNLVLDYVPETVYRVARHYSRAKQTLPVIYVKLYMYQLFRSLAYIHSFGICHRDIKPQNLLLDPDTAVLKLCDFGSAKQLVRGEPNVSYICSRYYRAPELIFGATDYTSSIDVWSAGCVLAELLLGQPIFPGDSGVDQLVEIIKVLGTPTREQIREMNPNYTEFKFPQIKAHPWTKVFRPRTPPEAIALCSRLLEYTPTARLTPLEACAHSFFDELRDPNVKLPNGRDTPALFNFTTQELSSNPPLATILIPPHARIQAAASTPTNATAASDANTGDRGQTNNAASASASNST
# assay details: Cerep LANCE kinase assay hGSK3b (S1 assay 34)
# Type: biochemical
# experimental setup: read-out: GSK3b
assay metric: IC50

compound	assay metric	measured value
CC(=O)Oc1ccc(C2(c3ccc(OC(C)=O)cc3)Oc3ccccc3NC2=O)cc1 [Bisoxatin diacetate]	IC50	> 20 µM
CCCCCCCCCCCCCCCCNc1ccc(C(=O)O)cc1 [cetaben sodium, sodium p-(hexadecylamino) benzoate, reference compound]	IC50	> 20 µM
CCCCC1C(=O)N(c2ccccc2)N(c2ccc(O)cc2)C1=O (stereo not shown)	IC50	> 20 µM
CC(C)C[C@H](NC(=O)[C@H](Cc1ccccc1)NC(=O)c1cnccn1)B(O)O [bortezomib, reference compound]	IC50	> 20 µM
O=C(CCl)c1ccc(Cl)cc1Cl	IC50	> 20 µM
CCC1=C[C@@H]2CN(C1)Cc1c([nH]c3ccccc13)[C@@](C(=O)OC)(c1cc3c(cc1OC)N(C)[C@H]1[C@@](O)(C(=O)OC)[C@H](OC(C)=O)[C@]4(CC)C=CCN5CC[C@]31[C@@H]54)C2	IC50	> 20 µM
CCCSc1ccc2nc(NC(=O)OC)[nH]c2c1	IC50	> 20 µM
CC(C)C[C@H](NC(=O)[C@H](CCc1ccccc1)NC(=O)CN1CCOCC1)C(=O)N[C@@H](Cc1ccccc1)C(=O)N[C@@H](CC(C)C)C(=O)[C@@]1(C)CO1 [carfilzomib, reference compound]	IC50	> 20 µM
CC[C@]1(O)C[C@H]2CN(CCc3c([nH]c4ccccc34)[C@@](C(=O)OC)(c3cc4c(cc3OC)N(C=O)[C@H]3[C@@](O)(C(=O)OC)[C@H](OC(C)=O)[C@]5(CC)C=CCN6CC[C@]43[C@@H]65)C2)C1	IC50	> 20 µM
COc1cccc2c1C(=O)c1c(O)c3c(c(O)c1C2=O)C[C@@](O)(C(C)=O)C[C@@H]3O[C@H]1C[C@H](N)[C@H](O)[C@H](C)O1	IC50	> 20 µM
CSc1ccc2c(c1)C(N1CCN(C)CC1)Cc1ccccc1S2 (stereo not shown) [metitepine, reference compound]	IC50	> 20 µM
Cc1nc2ccc(CN(C)c3ccc(C(=O)N[C@@H](CCC(=O)O)C(=O)O)s3)cc2c(=O)[nH]1 [raltitrexed, reference compound]	IC50	3.99 µM
CC[C@]1(O)C[C@@H]2CN(CCc3c([nH]c4ccccc34)[C@@](C(=O)OC)(c3cc4c(cc3OC)N(C)[C@H]3[C@@](O)(C(=O)OC)[C@H](OC(C)=O)[C@]5(CC)C=CCN6CC[C@]43[C@@H]65)C2)C1	IC50	> 20 µM
